# ASSAY_DETAILS: Comparison of absorption in rats after intragastric administration of free base and salt (plasma pharmacokinetics)
# Assay type: in vivo, SD rats
# CONDITION_SUMMARY: rat, po, 20 umol/kg; SD rats, 20 μmol/kg, intragastric administration, plasma; read-out: Tmax (converted)
VALUE_TYPE: Tmax (h)
Could you give me the number in h? Just the number is fine.

Q: Report Tmax for C=C(F)C(=O)Nc1cc2c(Nc3ccc(F)c(Cl)c3)ncnc2cc1OCCCN1CCOCC1 [reference compound] please.
Ans: 1

---

# ASSAY_DETAILS: Comparison of absorption in rats after intragastric administration of free base and salt (plasma pharmacokinetics)
# Format: in vivo, SD rats
# CONDITION_SUMMARY: SD rats, 20 μmol/kg, intragastric administration, plasma; listed as monobenzenesulfonate
VALUE_TYPE: Cmax (nM)
State the answer as a number, implicitly in nM.

Q: Fill in: Cmax of C=C(F)C(=O)Nc1cc2c(Nc3ccc(F)c(Cl)c3)ncnc2cc1OCCCN1CCOCC1.O=S(=O)(O)c1ccccc1 is ___
Ans: 2300

---

# ASSAY_DETAILS: Comparison of absorption in rats after intragastric administration of free base and salt (plasma pharmacokinetics)
# Assay type: in vivo, SD rats
# CONDITION_SUMMARY: SD rats, 20 μmol/kg, intragastric administration, plasma; listed as mono-D-gluconate
VALUE_TYPE: Cmax
Note: state the figure and append the unit.

Q: # lookup: Cmax of C=C(F)C(=O)Nc1cc2c(Nc3ccc(F)c(Cl)c3)ncnc2cc1OCCCN1CCOCC1.O=C(O)[C@H](O)[C@@H](O)[C@H](O)[C@H](O)CO
Ans: 1120 nM

---

# ASSAY_DETAILS: Comparison of absorption in rats after intragastric administration of free base and salt (plasma pharmacokinetics)
# Format: in vivo, SD rats
# CONDITION_SUMMARY: SD rats, 20 μmol/kg, intragastric administration, plasma
VALUE_TYPE: Tmax (min)
Reply numerically in min, unit not repeated.

Completed entries (count: 3):
SMI	Tmax (min)
C=C(F)C(=O)Nc1cc2c(Nc3ccc(F)c(Cl)c3)ncnc2cc1OCCCN1CCOCC1.O=C(O)[C@H](O)[C@@H](O)[C@H](O)[C@H](O)CO	80.00
C=C(F)C(=O)Nc1cc2c(Nc3ccc(F)c(Cl)c3)ncnc2cc1OCCCN1CCOCC1.O=S(=O)(O)CCS(=O)(=O)O	80.00
C=C(F)C(=O)Nc1cc2c(Nc3ccc(F)c(Cl)c3)ncnc2cc1OCCCN1CCOCC1.Cl.O	70.00

Q: Sample C=C(F)C(=O)Nc1cc2c(Nc3ccc(F)c(Cl)c3)ncnc2cc1OCCCN1CCOCC1.O=S(=O)(O)O — what was its Tmax?
Ans: 70.00

Q: Repeat for the following compound: C=C(F)C(=O)Nc1cc2c(Nc3ccc(F)c(Cl)c3)ncnc2cc1OCCCN1CCOCC1.O=S(=O)(O)c1ccccc1
Ans: 80.00

---

# ASSAY_DETAILS: Comparison of absorption in rats after intragastric administration of free base and salt (plasma pharmacokinetics)
# Assay type: in vivo, SD rats
# CONDITION_SUMMARY: SD rats, 20 μmol/kg, intragastric administration, plasma
Each entry below lists one item and its recorded AUC (0-t) value.
Record the value in µM·min, omitting the unit from your answer.

Some compounds with known AUC (0-t) results, for comparison:
SMI	AUC (0-t) / µM·min
C=C(F)C(=O)Nc1cc2c(Nc3ccc(F)c(Cl)c3)ncnc2cc1OCCCN1CCOCC1.Cl.O	507.89
C=C(F)C(=O)Nc1cc2c(Nc3ccc(F)c(Cl)c3)ncnc2cc1OCCCN1CCOCC1.O=C(O)[C@H](O)[C@@H](O)[C@H](O)[C@H](O)CO	484.40
C=C(F)C(=O)Nc1cc2c(Nc3ccc(F)c(Cl)c3)ncnc2cc1OCCCN1CCOCC1.O=S(=O)(O)CCS(=O)(=O)O	195.56
C=C(F)C(=O)Nc1cc2c(Nc3ccc(F)c(Cl)c3)ncnc2cc1OCCCN1CCOCC1.O=S(=O)(O)c1ccccc1	972.26

# evaluate next
Q: # get_value(readout='AUC (0-t)', item= C=C(F)C(=O)Nc1cc2c(Nc3ccc(F)c(Cl)c3)ncnc2cc1OCCCN1CCOCC1.O=S(=O)(O)O )
Ans: 591.00

Source listed as patent US10870627B2.
